# System: KRAS PDC multicell spheroid viability
# Protocol text: Anticancer human tumor 521955-158-R6-J3-PDC patient-derived pancreatic carcinoma cell line growth inhibition [KRAS2]; active means viability on the fitted dose curve at most 10% of control; inactive means the rest
# Setup conditions: second compound 3.16 µM; first compound 0.1 µM
# Description: Multicellular complex tumor spheroid response to RAS pathway inhibitors in combination with a targeted agents in patient-derived cell lines with oncogenic KRAS variants from multiple cancer types A high-throughput screen of multi-cell type tumor spheroids was designed to identify active combinations of targeted small molecules and KRAS pathway inhibitors. […] Compounds. […] If the clinical Cmax for an agent had not been determined, the highest concentration tested was 10 microM. […]
Outcome codes: active, inactive

Compound	Test system	Category
CC1COCCN1c1cc(-c2ccnn2C)c2ccnc(-c3ccn[nH]3)c2n1 (stereo not given) + CNCc1ccccc1-c1csc(C(C)Nc2nc(C)nc3cc(OC)c(OC)cc23)c1	KRAS PDC multicell spheroid viability	active
O=C(c1cc(Cc2n[nH]c(=O)c3ccccc23)ccc1F)N1CCN(C(=O)C2CC2)CC1 + CNCc1ccccc1-c1csc(C(C)Nc2nc(C)nc3cc(OC)c(OC)cc23)c1	KRAS PDC multicell spheroid viability	active
Cn1ncnc1[C@H]1c2n[nH]c(=O)c3cc(F)cc(c23)N[C@@H]1c1ccc(F)cc1 + CNCc1ccccc1-c1csc(C(C)Nc2nc(C)nc3cc(OC)c(OC)cc23)c1	KRAS PDC multicell spheroid viability	active
CC(C)n1nc(-c2ccc3oc(N)nc3c2)c2c(N)ncnc21 + COc1cc2nc(C)nc(NC(C)c3cc(N)cc(C(F)(F)F)c3)c2cc1OC1CCOC1	KRAS PDC multicell spheroid viability	inactive
COC(=O)c1ccc2c(C(=Nc3ccc(N(C)C(=O)CN4CCN(C)CC4)cc3)c3ccccc3)c(O)[nH]c2c1 + C=CC(=O)N1CCN(c2nc(=O)n(-c3c(C)ccnc3C(C)C)c3nc(-c4c(O)cccc4F)c(F)cc23)C(C)C1	KRAS PDC multicell spheroid viability	inactive

----------
# Test system: KRAS PDC multicell spheroid viability
# Protocol text: Anticancer human tumor 521955-158-R6-J3-PDC cell line growth inhibition [KRAS2];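 further: drug exposure lasted seven days; 100% = DMSO vehicle wells and lower means fewer viable cells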
# Setup conditions: second compound 0.316 µM; first compound 0.316 µM; active compounds read low

Compound	viability, T/C / %
CC(C)NCC(C(=O)N1CCN(c2ncnc3c2C(C)CC3O)CC1)c1ccc(Cl)cc1 (stereo not given) + COc1cc2nc(C)nc(NC(C)c3cc(N)cc(C(F)(F)F)c3)c2cc1OC1CCOC1	75.7
O=C(c1cc(Cc2n[nH]c(=O)c3ccccc23)ccc1F)N1CCN(C(=O)C2CC2)CC1 + C=CC(=O)N1CCN(c2nc(OCC3CCCN3C)nc3c2CCN(c2cccc4cccc(C)c24)C3)CC1CC#N	103
COC(=O)c1ccc2c(C(=Nc3ccc(N(C)C(=O)CN4CCN(C)CC4)cc3)c3ccccc3)c(O)[nH]c2c1 + CC1OCC2(CCN(c3cnc(Sc4ccnc(N)c4Cl)c(N)n3)CC2)C1N	110
CCN1CCN(Cc2ccc(Nc3ncc(F)c(-c4cc(F)c5nc(C)n(C(C)C)c5c4)n3)nc2)CC1 + C=CC(=O)N1CCN(c2nc(=O)n(-c3c(C)ccnc3C(C)C)c3nc(-c4c(O)cccc4F)c(F)cc23)C(C)C1	88.2
Cn1nccc1Nc1nccc(-c2cc3c(s2)C(C)(C)N(CCN2CCOCC2)C3=O)n1 + CC1OCC2(CCN(c3cnc(Sc4ccnc(N)c4Cl)c(N)n3)CC2)C1N	90.3
